Biological target: human c-Met (human, UniProt P08581 25-1390)
Sequence (P08581 25-1390): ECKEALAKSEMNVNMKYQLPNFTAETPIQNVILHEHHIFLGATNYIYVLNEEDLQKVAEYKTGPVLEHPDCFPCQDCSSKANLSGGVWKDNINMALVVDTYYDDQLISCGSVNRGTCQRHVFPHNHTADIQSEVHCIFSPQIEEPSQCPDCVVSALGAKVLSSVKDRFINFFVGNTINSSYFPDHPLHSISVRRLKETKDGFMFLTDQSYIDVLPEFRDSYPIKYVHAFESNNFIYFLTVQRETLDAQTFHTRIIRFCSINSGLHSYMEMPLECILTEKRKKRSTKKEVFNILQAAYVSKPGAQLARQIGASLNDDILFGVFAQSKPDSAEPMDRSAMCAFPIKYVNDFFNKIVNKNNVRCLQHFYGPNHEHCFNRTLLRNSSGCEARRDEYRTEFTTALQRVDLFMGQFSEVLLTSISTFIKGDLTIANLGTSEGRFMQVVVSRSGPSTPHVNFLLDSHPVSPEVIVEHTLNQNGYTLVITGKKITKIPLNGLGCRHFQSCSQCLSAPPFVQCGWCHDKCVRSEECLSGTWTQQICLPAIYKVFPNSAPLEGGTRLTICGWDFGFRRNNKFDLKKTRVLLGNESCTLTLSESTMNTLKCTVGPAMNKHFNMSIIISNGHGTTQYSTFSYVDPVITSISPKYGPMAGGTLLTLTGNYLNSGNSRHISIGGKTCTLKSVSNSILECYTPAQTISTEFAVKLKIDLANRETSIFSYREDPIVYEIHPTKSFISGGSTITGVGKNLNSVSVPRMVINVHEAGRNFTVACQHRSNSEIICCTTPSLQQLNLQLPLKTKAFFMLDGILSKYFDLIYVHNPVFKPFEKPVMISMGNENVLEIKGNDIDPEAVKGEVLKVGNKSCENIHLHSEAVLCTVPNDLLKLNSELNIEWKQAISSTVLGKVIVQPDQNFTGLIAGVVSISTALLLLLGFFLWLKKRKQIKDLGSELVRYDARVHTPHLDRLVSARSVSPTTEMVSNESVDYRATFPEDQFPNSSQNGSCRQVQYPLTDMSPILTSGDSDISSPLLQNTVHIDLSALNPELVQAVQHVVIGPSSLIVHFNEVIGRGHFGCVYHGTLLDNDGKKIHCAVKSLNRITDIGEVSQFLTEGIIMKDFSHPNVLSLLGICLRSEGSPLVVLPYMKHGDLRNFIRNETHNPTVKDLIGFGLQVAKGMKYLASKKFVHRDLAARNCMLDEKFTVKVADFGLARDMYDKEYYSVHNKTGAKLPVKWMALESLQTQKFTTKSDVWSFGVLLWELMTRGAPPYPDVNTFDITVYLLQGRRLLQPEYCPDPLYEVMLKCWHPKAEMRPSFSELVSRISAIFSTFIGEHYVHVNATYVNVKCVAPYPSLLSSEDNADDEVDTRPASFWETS
Test: cell-based or functional assay
Listed next: entries and their corresponding AVG CPM, 3H-thymidine incorporation in MKN45 cells, Ab 555.6 ng/mL.
Express the result in CPM but write the number alone.

binder="C8-co-16 (antibody, human IgG2, kappa, V domains shown, Named IgG4 kappa; also called C8-co-16 IgG4) VH: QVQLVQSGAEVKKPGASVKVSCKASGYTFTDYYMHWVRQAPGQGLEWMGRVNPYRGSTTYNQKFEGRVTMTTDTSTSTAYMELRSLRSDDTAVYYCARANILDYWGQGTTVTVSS VL: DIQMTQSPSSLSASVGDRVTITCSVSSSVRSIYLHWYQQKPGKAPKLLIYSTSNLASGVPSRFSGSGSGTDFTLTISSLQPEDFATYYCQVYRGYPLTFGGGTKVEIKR" readout_unit=CPM assay_value=13500

Exercise: Entry C8-6 (antibody, human IgG2, kappa, V domains shown, Named IgG4 kappa; also called C8-6 IgG4) VH: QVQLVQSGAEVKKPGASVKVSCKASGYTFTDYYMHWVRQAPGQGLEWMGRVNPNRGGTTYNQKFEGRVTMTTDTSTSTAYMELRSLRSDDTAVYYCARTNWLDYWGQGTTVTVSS VL: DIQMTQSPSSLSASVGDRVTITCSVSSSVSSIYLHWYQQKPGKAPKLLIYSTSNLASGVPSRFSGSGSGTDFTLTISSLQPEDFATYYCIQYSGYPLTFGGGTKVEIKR : reported AVG CPM, 3H-thymidine incorporation in MKN45 cells, Ab 555.6 ng/mL = ?
Key: 18300

Values were extracted from patent US20100129369A1.
